Cited source for all entries: patent US20220125947A1

- measured-target: T1, T cell receptor (TCR) Vγ9 (TRGV9) (human, UniProt Q99603 21-122); note: unit not given here
- T1 chain (looked up): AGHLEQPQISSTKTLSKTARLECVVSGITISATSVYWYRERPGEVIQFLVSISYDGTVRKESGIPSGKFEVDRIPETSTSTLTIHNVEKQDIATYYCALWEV
- experiment-summary: cell-based or functional assay
measurement-kind: TNFα, Luminex (supernatant)

[[record]]
binder = "VG9B430 (antibody, human IgG1, kappa, V domains shown) VH: EVQLLESGGGLVKPGGSLRLSCSASGFTFSSYDMNWVRQAPGKGLEWVSSISSSSSYIYYADSVKGRFTISRDNAKNSLYLQMNSLRAEDTAVYHCARDVGVTTDYYYYGMDVWGQGTMVTVSS VL: EIVLTQSPGTLSLSPGDRATLSCRASQSVASSYLAWYQQKPGQSPRLLIYGASSRATGIPDRFSGSGSGTDFTLTISRLEPEDFAVYYCQQYGSSPPYTFGQGTKLEIKR"
measurement_kind = "TNFα, Luminex (supernatant)"
recorded_result = 125

[[record]]
binder = "VG9B469 (antibody, human IgG1, kappa, V domains shown) VH: EVQLVESGGGLVKPGGSLRLSCAASGFTFSHYDMNWVRQAPGKGLEWVSSISSSSSYIFYADSVKGRFTISRDNAKNSLLLQMNSLRAEDTAVYHCARDRGVGDTSDYYSFGLDVWGQGTMVTVSS VL: DIVMTQSPGTLSLSPGERATLSCRASQNVSSTYLAWYQQKPGQAPRLLIYGACSRATGIPDRFSGSGSGTDFTLTISRLEPEDYAVYYCQQYGSSPPYTFGRGTKLEIKR"
measurement_kind = "TNFα, Luminex (supernatant)"
recorded_result = 173

[[record]]
binder = "VG9B198 (antibody, human IgG1, lambda, V domains shown) VH: QVQLQESGPGLVKPSETLSLTCTVSGDSISSIYWSWIRQSAGKGLEWIGRIYTTDITNYNPSLKSRVTMSADTSKNQLSLKLTSVTAADTAVYYCAKNGYSYGGFNYWGQGTLVTVSS VL: QSVLTQPPSVSGAPGQRVTISCTGSSSNIGAGYDVHWYQRLPGTAPKLLIYGDSYRPSGVPDRFSGSKSGTSASLAITGLQAEDEADYYCQSYDSSLSVVVFGGGTKLTVLG"
measurement_kind = "TNFα, Luminex (supernatant)"
recorded_result = 66

